Tested on: SNB-75 CNS
assay.notes: NCI-60 one-dose screen, 48 h (100 = growth as untreated, 0 = no growth, -100 = all killed)
condition.summary: 10 µM
About 83,000 compounds went through this panel and 20% of them were active in at least one assay; those are over-represented in the sample as a whole.
Classes based on growth: A: < -20%; B: ≥ -20% and < 80%; C: ≥ 80%

Which bin, given its growth, does `O=C(c1ccc([N+](=O)[O-])c([N+](=O)[O-])c1O)n1[nH]c(=O)c2ccccc2c1=O` occupy?
C

Hi, small favor: classify `O=C(CSc1nnc(-c2c[nH]c3ccccc23)n1-c1ccccc1)c1ccc(Cl)cc1` by its growth when you get a moment.
B

Which class holds `Clc1ccc(/C=N/Nc2ncnc3sc4c(c23)CCN(Cc2ccccc2)C4)cc1` ?
A

Category lookup for the molecule `CCCS(=O)(=O)c1oc(-c2ccc(F)cc2)nc1S(=O)(=O)c1ccc(F)cc1`
B

Category of `O=C(Nc1ccc(F)c(Cl)c1)c1cc(-c2ccc(F)cc2F)ccc1O` :
A

Would you mind sorting `N#Cc1c(NC(=O)c2ccc(C(F)(F)F)cc2)sc2c1CCC(=O)C2` into the appropriate category?
A

Looking at `Nc1nc(Nc2ccc(Cl)cc2)n(Cc2cccc(Br)c2)n1` , which class would you pick?
A

Sort C#CCNC(=O)CCC(=O)OC[C@]12CC[C@@H](C(=C)C)[C@@H]1C1CC[C@@H]3[C@@]4(C)CCCNC(C)(C)[C@@H]4CC[C@@]3(C)[C@]1(C)CC2 (stereo partly drawn) into one of the categories.
C

Place this molecule in its band: COc1ccc(N2N=C(c3ccc4c(c3)OCCO4)CC2c2cccc(NC(=O)CCCNS(=O)(=O)c3ccc(F)cc3)c2)cc1 (stereo not drawn)
B

Class? Entry: `COc1cc(/C=C/C(=O)c2ccc(NC(=O)CSc3nnc(-c4c[nH]c5ccccc45)n3-c3ccccc3)cc2)cc(OC)c1OC`
C

Lab note: sort `C=C(c1ccc(OC)c(N)c1)c1cc(C)nc2ccccc12` into the matching growth band.
B

Assign a category based on measured growth for `CNC(=O)c1cc(-c2ccc(NC(=O)Nc3ccc(C)cc3)cc2)nc2cccnc12` and give only the class name.
C

Note: place this molecule into its band. Item: `COc1ccc(-c2nc(S(=O)(=O)c3ccccc3)c(S(C)(=O)=O)o2)cc1`
B

Which class is correct for the following molecule? `Cc1ccc2nc(-c3ccc(-c4nnc(SCC(=O)Nc5ccc(Cl)cc5)o4)cc3)[nH]c2c1`
C

Could you tell me which band `Cc1ccc(/C(CSc2nnc(-c3c[nH]c4ccccc34)n2-c2ccccc2)=N/O)cc1` belongs to?
A

Which class holds `CCCn1c(=O)c2[nH]c(-c3ccc(OCc4nc5ccccc5[nH]4)cc3)nc2n(CCC)c1=O` ?
B

Could you tell me which band `CCOc1ccc2ncc(C#Cc3cncc(C(=O)Nc4ccc(CN5CCN(C)CC5)c(C(F)(F)F)c4)c3)n2n1` belongs to?
A

###

What growth was measured for each of the following?
Tested on: MDA-MB-231 breast
assay.notes: NCI-60 one-dose screen, 48 h (100 = growth as untreated, 0 = no growth, -100 = all killed)
condition.summary: 10 µM
Compounds without any hit were thinned out: in the full panel of roughly 83,000, 20% have a hit.
API: value field is a number in %; no unit string.

Recorded growth for `CN(CCF)c1ccc(/C=C/C(=O)c2ccc(N)cc2O)cc1` , please?
95.7

Requested field: growth. Item: `CN1CCN(Cc2ccc(C(=O)Nc3cccc(Nc4ccc5cc(O)ccc5n4)c3)cc2C(F)(F)F)CC1`
-55

I'd like to know its growth. The molecule in question is `COc1cc2c(cc1OC)/C(=C\c1sc(Nc3ccc(O)cc3)nc1O)C(C(=O)O)=N2`
29.8

Look up growth for this molecule: `CN1CCc2c(sc3ncnc(N/N=C/c4cn(-c5ccccc5)nc4-c4ccc(Cl)cc4)c23)C1`
4.63

I would be grateful if you could share the reported growth for `CO[C@H]1CSS[C@@H]1Cn1nc(-c2ccc(Oc3ccccc3)cc2)c2c(N)ncnc21` .
9.69

If you can, please state the reported growth value of O=C1CCC(N2Cc3c(C#CCCCNC(=O)c4ccc(NC(=O)[C@@H]5NC6(CCCCC6)[C@@]6(C(=O)Nc7cc(Cl)ccc76)[C@H]5c5cccc(Cl)c5F)cc4)cccc3C2=O)C(=O)N1 (some centres not stated) .
52

Find the recorded growth belonging to `COc1ccc2cc([C@H](C)C(=O)NCc3ccccc3)ccc2c1` and report it.
38.4

Which value of growth has been reported for `N#Cc1c(NC(=O)c2cccc(C(F)(F)F)c2)sc2c1CCC(O)=C2` in the records?
39.6

Entry `Cc1cc(=O)oc2cc(OCCCCOc3ccc(/C=C/C(=O)Nc4cccc(Cl)c4)cc3)ccc12` has what growth?
88.3

Recorded growth for `C=C(C)[C@@H]1CC[C@]2(COP(=O)(OCC)OCC)CC[C@]3(C)[C@H](CC[C@@H]4[C@@](C)(CCCN)[C@H](C(=C)C)CC[C@]43C)[C@@H]12` , please?
21.9

Given `CC(C)C1=C[C@@]23CC[C@@H]4[C@](C)(CCC[C@]4(C)C(=O)NCc4ccccc4)[C@H]2C[C@@H]1[C@H]1C(=O)CCC(=O)[C@H]13` , state its recorded growth.
86.5

Requested field: growth. Item: `CC1=C2C(=C[C@@](C)(COCOCCCl)[C@@H]2O)C(=O)[C@](C)(O)C12CC2`
-44.7

Which growth reading was recorded for the molecule `CC(=O)NCC1=C(C)C=C2C(=O)[C@](C)(O)C3(CC3)C(C)=C21` ?
-61.5

// lookup growth for `COc1ccc(-c2cc(-c3cc(C(=O)c4ccc(Br)cc4)n4ccc(C)cc34)nc(N)c2C#N)cc1`
59.7

Requested read-out: growth. Entry: `O=C(NO)c1ccc(-c2nc3ccc4[nH]ncc4c3c3c2CCCC3)cc1`
-27.6

Recorded growth of `CN1CCN(c2ccc(Nc3nc(NCCNC(=O)c4ccc(C(F)(F)F)cc4)c4sccc4n3)cc2)CC1` , please.
-36.1

Reported growth, molecule CC(=O)C1=C(C)NC(SCC(=O)Nc2ccc(S(=O)(=O)Nc3cc(C)on3)cc2)=NC1c1ccccc1 (configuration not stated) : ____
110
